system.name: phosphorylated VEGF-R2Δ50 (FLVK-P) (Homo sapiens, UniProt P35968, DEL940-989/E990V)
Construct: VEGF-R2Δ50 contains residues 806-939 and 990-1171; made in house; host or cells: baculovirus/insect cells
Sequence (P35968 with tags, fused parts or gaps DEL940-989/E990V limits assumed): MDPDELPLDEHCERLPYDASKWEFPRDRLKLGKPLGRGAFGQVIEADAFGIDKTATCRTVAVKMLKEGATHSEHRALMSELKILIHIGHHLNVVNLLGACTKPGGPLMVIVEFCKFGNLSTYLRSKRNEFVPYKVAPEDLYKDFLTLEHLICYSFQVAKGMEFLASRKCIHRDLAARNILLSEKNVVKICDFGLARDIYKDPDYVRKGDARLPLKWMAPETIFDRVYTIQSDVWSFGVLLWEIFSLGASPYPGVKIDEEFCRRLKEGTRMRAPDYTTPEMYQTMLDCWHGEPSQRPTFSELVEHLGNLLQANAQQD
measurement.description: VEGF-R2 coupled spectrophotometric (FLVK-P) assay
Type: biochemical
measurement.conditions: read-out: VEGF % inhibition at 20 μM, 20 μM; combinatorial library compounds
measured.property: inhibition at 20 µM (%)

CN(C)c1ccc(Nc2nc(N)c(-c3nc(-c4ccc5ccccc5c4)cs3)s2)cc1 ... 5
CCN(CC)c1ccc(-c2csc(-c3sc(Nc4ccc(S(N)(=O)=O)cc4)nc3N)n2)cc1 ... 10
CC(C)c1ccc(Nc2nc(N)c(-c3nc(-c4cccc([N+](=O)[O-])c4)cs3)s2)cc1 ... -2
CC1(C)CCC(C)(C)c2cc(-c3csc(-c4sc(Nc5ccc(S(N)(=O)=O)cc5)nc4N)n3)ccc21 ... -2
CN(C)c1ccc(Nc2nc(N)c(-c3nc(-c4c(Cl)cc(C(F)(F)F)cc4Cl)cs3)s2)cc1 ... 26
Nc1nc(Nc2ccc(S(N)(=O)=O)cc2)sc1-c1nc(-c2ccc(F)cc2)cs1 [drawing 409] ... 43

a: Nc1nc(Nc2ccc(S(N)(=O)=O)cc2)sc1-c1nc(-c2ccc(Cl)cc2Cl)cs1 [drawing 406]
b: Nc1nc(Nc2ccc(S(N)(=O)=O)cc2)sc1-c1nc(-c2csc3ccccc23)cs1
Query: Select one. Lower inhibition at 20 µM: a or b Provide the label of your selected option as the answer.
Response: b
